- Tested on: SR leukemia
- METHOD_SUMMARY: NCI tumour cell line growth inhibition, 48 h
Entries and their measured TGI follow.
ATTRIBUTE_MEASURED: TGI

MOLECULE: CCCCCCCCN=C(NCCCCCCCC)SCc1cccc2ccccc12
ATTRIBUTE_MEASURED: TGI
OBSERVED: 2.39 µM

MOLECULE: Cc1cc(O)c2c(c1)C(C1c3cccc(O)c3C(=O)c3c(O)cc(C)cc31)c1cccc(O)c1C2=O (configuration not stated)
ATTRIBUTE_MEASURED: TGI
OBSERVED: 3.32 µM

MOLECULE: C=CCSC(C)=O
ATTRIBUTE_MEASURED: TGI
OBSERVED: > 100 µM

MOLECULE: N#CC1=C(N)OC2=C(CCOc3c2ccc2ccccc32)C1c1ccc(Br)cc1 (configuration not stated)
ATTRIBUTE_MEASURED: TGI
OBSERVED: 57.8 µM

MOLECULE: CCNC(=S)NNC(=O)c1ccccc1Nc1ccccc1C(=O)NNC(=S)NCC
ATTRIBUTE_MEASURED: TGI
OBSERVED: > 100 µM

MOLECULE: CN(C)c1ccc2[nH]c3c(C(N)=O)cc(=O)c(=O)c=3oc2c1
ATTRIBUTE_MEASURED: TGI
OBSERVED: 8.49 µM

MOLECULE: COc1cc(C(=O)n2nc(N)c3c(C)cc(C)nc32)cc(OC)c1OC
ATTRIBUTE_MEASURED: TGI
OBSERVED: > 100 µM

* * *

- Test system: SK-MEL-5 melanoma
- METHOD_SUMMARY: NCI tumour cell line growth inhibition, 48 h
Given measured TGI, output 1.0 if it is greater than or equal to 30 µM and 0.0 if not.

COMPOUND: COc1ccc(C2=NNC(=O)c3ccccc3N2c2nc(-c3cccs3)nc3cc(OC)c(OC)cc23)cc1
LABEL_VALUE: 0.0

COMPOUND: COC(=O)C(=O)C(C(=O)OC)C(=O)C(=O)Nc1c(Cl)cc([N+](=O)[O-])cc1Cl (configuration not stated)
LABEL_VALUE: 1.0

COMPOUND: N#CC(/C(CCCC(=O)Nc1cccc([N+](=O)[O-])c1)=N\NC(=O)c1c(O)ccc2ccccc12)c1nc2ccccc2s1 (configuration not stated)
LABEL_VALUE: 1.0

COMPOUND: CC[C@]12C=CCN3CC[C@@]4(c5cc(Br)c(OC)cc5N(C)[C@H]4[C@@](O)(C(=O)NC(Cc4c[nH]c5ccccc45)C(=O)OC)[C@@H]1O)[C@@H]32 (some centres not stated)
LABEL_VALUE: 1.0

COMPOUND: COc1cccc(CCNc2c(C#N)c3n(c4ccccc4[n+]3C)c3ncccc23)c1
LABEL_VALUE: 0.0

COMPOUND: COc1ccc2c(c1)-c1c(c3cc(OC)ccc3n(CCN(C)C)c1=O)C2=O
LABEL_VALUE: 0.0

COMPOUND: COc1ccc2cc1Oc1ccc(cc1)C[C@@H]1c3cc(c(OC)cc3CCN1C)Oc1c(OC)c(OC)cc3c1[C@H](C2)N(C)CC3
LABEL_VALUE: 0.0

COMPOUND: CCC(Nc1ncnc2nc[nH]c12)C(=O)O (configuration not stated)
LABEL_VALUE: 1.0

COMPOUND: CC(=O)Nc1ccc(/C=c2\sc3nnc(-c4cccnc4)n3c2=O)cc1
LABEL_VALUE: 1.0

COMPOUND: CSc1ccc(C(=O)/C=C/c2ccc(Cl)cc2Cl)cc1
LABEL_VALUE: 1.0

COMPOUND: CSc1nnc(C(C#N)C#N)nn1
LABEL_VALUE: 1.0

COMPOUND: O=c1[nH]cnc2c1cnn2Cc1cnnn1COCCO
LABEL_VALUE: 1.0

* * *

- Test system: RXF 393 renal
- METHOD_SUMMARY: NCI tumour cell line growth inhibition, 48 h
ATTRIBUTE_MEASURED: log10 of TGI (log10 of the value in µM)

MOLECULE: COC(=O)c1c2c(cc3c1CC1(Cc4ccccc4C1)C3)CCC2
ATTRIBUTE_MEASURED: log10 of TGI
OBSERVED: 1.72

MOLECULE: N#CC1=C(N)N(/N=C/c2ccco2)C(c2ccco2)C1(C#N)C#N (stereo unspecified)
ATTRIBUTE_MEASURED: log10 of TGI
OBSERVED: 1.41

MOLECULE: CCc1c(C)c2cc(-n3c(-c4ccc(OC)cc4)csc3=N)c(O)c(C)c2oc1=O
ATTRIBUTE_MEASURED: log10 of TGI
OBSERVED: 0.83

MOLECULE: CC1(C)C(=O)/C=C\C(=O)C(C)(C)C(=O)/C=C\C(=O)C(C)(C)C2=CC=C(O2)C(C)(C)C(=O)/C=C\C1=O
ATTRIBUTE_MEASURED: log10 of TGI
OBSERVED: 0.67

MOLECULE: O=C1c2cccnc2-c2nccc3c2c1nc1ccccc13
ATTRIBUTE_MEASURED: log10 of TGI
OBSERVED: -0.34

MOLECULE: C(=N\NC1=NCCN1)/c1ccc2ccccc2c1
ATTRIBUTE_MEASURED: log10 of TGI
OBSERVED: 1.54

MOLECULE: Cn1c(I)c(C#C[Si](C)(C)C)c(=O)[nH]c1=O
ATTRIBUTE_MEASURED: log10 of TGI
OBSERVED: 0.24

MOLECULE: CC12O[C@H](C[C@@H](OC(=O)CCC(=O)O)[C@H]1O)n1c3ccccc3c3c4c(c5c6ccccc6n2c5c31)C(=O)NC4=O
ATTRIBUTE_MEASURED: log10 of TGI
OBSERVED: 0.62

MOLECULE: COc1ccc2nc3ccccc3c(NCCCCN(CCCl)CCCl)c2c1
ATTRIBUTE_MEASURED: log10 of TGI
OBSERVED: -0.54

MOLECULE: Fc1ccc(Nc2nc(Nc3ccc(-c4nc5ccccc5[nH]4)cc3)c3cn[nH]c3n2)cc1
ATTRIBUTE_MEASURED: log10 of TGI
OBSERVED: 0.53

MOLECULE: COc1ccc(-c2oc3cc(O)c(OC)c(O)c3c(=O)c2O)cc1
ATTRIBUTE_MEASURED: log10 of TGI
OBSERVED: 1.70

MOLECULE: CC(=O)c1c(C)c2cnc(Nc3ccc(N4CCNCC4)cn3)nc2n(C2CCCC2)c1=O
ATTRIBUTE_MEASURED: log10 of TGI
OBSERVED: 1.24

* * *

- Tested on: DU-145 prostate
- METHOD_SUMMARY: NCI tumour cell line growth inhibition, 48 h
Catalogue of molecules with associated TGI

MOLECULE: CN1CCN(c2ccc(NC3=CC(=O)c4ncncc4C3=O)cc2)CC1
UNIT_INFO: µM
RESULT_OPERATOR: =
TGI: 1.88
//
MOLECULE: COc1ccc(-c2cc(-c3ccc(Nc4ccnc5cc(Cl)ccc45)cc3)[nH]c(=O)c2C#N)cc1
UNIT_INFO: µM
RESULT_OPERATOR: >
TGI: 100
//
MOLECULE: CCc1c(C)c2cc(-n3c(-c4ccc(OC)cc4)csc3=N)c(O)c(C)c2oc1=O
UNIT_INFO: µM
RESULT_OPERATOR: =
TGI: 12.3
//
MOLECULE: CC[C@]12C=CCN3CC[C@@]4(c5cc(Br)c(OC)cc5N(C)[C@H]4[C@@](O)(C(=O)NC(Cc4c[nH]c5ccccc45)C(=O)OC)[C@@H]1O)[C@@H]32 (stereo not given in full)
UNIT_INFO: µM
RESULT_OPERATOR: >
TGI: 100
//
MOLECULE: O=C1Nc2ccc(Br)cc2/C1=N/N1C(=O)C(=O)N(C2CCCCC2)C1=S
UNIT_INFO: µM
RESULT_OPERATOR: =
TGI: 23.1
//
MOLECULE: O=c1/c(=C/c2ccccn2)sc2nc3cc4c(cc3n12)OCCO4
UNIT_INFO: µM
RESULT_OPERATOR: >
TGI: 100
//
MOLECULE: COC(=O)CC1=C(C)/C(=C/c2[nH]c(-c3ccc[nH]3)cc2OC)N=C1C
UNIT_INFO: µM
RESULT_OPERATOR: =
TGI: 12.8
//
MOLECULE: Cc1c(-c2ccccn2)ccc2ccccc12
UNIT_INFO: µM
RESULT_OPERATOR: >
TGI: 100
//
MOLECULE: O=C(NC1=C(Cl)C(=O)c2ccccc2C1=O)C(=O)C(C(=O)c1ccc2ccccc2c1)C1OC(=O)c2ccccc21 (stereo not given)
UNIT_INFO: µM
RESULT_OPERATOR: =
TGI: 23.9
//
MOLECULE: CCOC(=O)/C=C1/SC(=Nc2ccc(C#N)cc2)N(Cc2ccco2)C1=O
UNIT_INFO: µM
RESULT_OPERATOR: =
TGI: 10.5

Hey, just so you know, these numbers are from PubChem BioAssay (NCI).
